Where these numbers come from: the supplement of paper PMC7017272

tested on: UT-SCC-8; experiment: drug sensitivity score (DSS); higher = more sensitive; extreme values may be limits of the assay; details: culture condition: plastic 2D (no matrix); treatment time: 3 days
METRIC_NAME: drug sensitivity score (DSS)

molecule="CO[C@H]1C[C@@H]2CC[C@@H](C)[C@@](O)(O2)C(=O)C(=O)N2CCCC[C@H]2C(=O)O[C@H]([C@H](C)C[C@@H]2CC[C@@H](OCCO)[C@H](OC)C2)CC(=O)[C@H](C)/C=C(\\C)[C@@H](O)[C@@H](OC)C(=O)[C@H](C)C[C@H](C)/C=C/C=C/C=C/1C [Everolimus]" target_system=UT-SCC-8 number=6.57
molecule="Cn1cnc2c(F)c(Nc3ccc(Br)cc3Cl)c(C(=O)NOCCO)cc21 [Selumetinib]" target_system=UT-SCC-8 number=5.63
molecule="CN(C)C/C=C/C(=O)Nc1cc2c(Nc3ccc(F)c(Cl)c3)ncnc2cc1O[C@H]1CCOC1 [Afatinib]" target_system=UT-SCC-8 number=18
